- experimental-protocol: Primary qHTS for delayed death inhibitors of the malarial parasite plastid, 48 hour incubation; also: potency is read from the fitted curve at half-maximal effect
- condition: P. falciparum luciferase growth in erythrocytes; series mostly up to 28.7 µM
- Description: The goal of this screen is to discover new antimalarial compounds that act by inhibiting the development of the apicoplast in the malarial parasite Plasmodium falciparum. […] We have developed a cell-based assay that measures parasite growth based on the expression of an integrated copy of a firefly luciferase reporter. […] Growth inhibition is detected by a decrease in luciferase activity. […]
In all, about 310,000 compounds went through this assay and about 18,000 (5.8%) were called active. About 22% were inconclusive and are not listed. The full list was thinned out, with actives kept by preference.
metric: Potency

Potency lookup needed for Cc1ccc(C)c(NC(=O)CN(C)C(=O)c2ccc3ncsc3c2)c1 , thanks.
inactive

Potency lookup needed for CCOC(=O)C1CCN(C(=O)CN2C(=O)c3cccnc3Oc3ccc(C)cc32)CC1 , thanks.
inactive

Potency lookup needed for Cc1nnc(SCC(=O)N2CCN(c3ccccc3)CC2)n1-c1ccccc1 , thanks.
inactive

Potency lookup needed for C=CCOc1cccc(C2NC(=O)c3ccccc3O2)c1 (stereo not given) , thanks.
inactive

Potency lookup needed for NS(=O)(=O)c1ccc(CCNC(=O)CNC(=O)Cc2ccccc2)cc1 , thanks.
inactive

Potency lookup needed for Cc1ccc(Nc2nc(N)nc(CN3CCN(Cc4ccccc4)CC3)n2)cc1Cl , thanks.
inactive

Potency lookup needed for O=C(CN1CCCCCC1)N1c2ccccc2Sc2ccc(C(F)(F)F)cc21 , thanks.
13.1 µM (active)

Potency lookup needed for COc1ccc(F)cc1S(=O)(=O)NCC(c1ccc2c(c1)OCO2)N1CCN(C)CC1 (stereo not given) , thanks.
inactive

Potency lookup needed for COc1ccc2c(c1)SC(C)CC2=O (stereo not given) , thanks.
inactive

Potency lookup needed for CC(=O)c1ccc(-n2nnnc2SCC(=O)N2CCN(C(=O)c3ccco3)CC2)cc1 , thanks.
inactive

Continuing:
Potency lookup needed for CC(=O)COc1ccc2c(-c3ccccc3)cc(=O)oc2c1 , thanks.
inactive

---

- experimental-protocol: Primary qHTS for delayed death inhibitors of the malarial parasite plastid, 48 hour incubation
- condition: P. falciparum luciferase growth in erythrocytes; series mostly up to 28.7 µM
Hit rate of the full screen: of about 310,000 compounds, about 18,000 (5.8%) were called active. About 22% were inconclusive and are not listed. The call rests on the fitted dose curve; in most records, active means well fitted inhibition curve with a large enough effect; inconclusive means small, poorly fitted or top-dose-only effect, or another doubt; inactive means no such curve, though single readings can be large or run the other way. This excerpt belongs to a sample that is enriched for actives.
One label from this list, please: active, inactive

Given CC(C)CCNC(=O)C1CCCN(S(=O)(=O)c2ccc(F)cc2)C1 (configuration not stated) , state the outcome it received in this test.
inactive

Given O=C(c1ccccc1)c1ccc(C(=O)N2CCN(c3ccccc3)CC2)cc1 , state the outcome it received in this test.
inactive

Given CC(OC(=O)CN1C(=O)COc2ccccc21)C(=O)NCc1ccc(F)cc1 (configuration not stated) , state the outcome it received in this test.
inactive

Given Cn1c(SCC(=O)N2CCCCC2)nc2c(c1=O)SCC2 , state the outcome it received in this test.
inactive

Given CCOc1cccc(NC(=O)C2CCCN(S(=O)(=O)c3ccc(OC)cc3)C2)c1 (configuration not stated) , state the outcome it received in this test.
active

Given Cc1ccc(NS(=O)(=O)c2ccc(-c3ccc(=O)[nH]n3)o2)c(C)c1 , state the outcome it received in this test.
inactive

Given O=C(c1cc2cc(F)ccc2[nH]1)N1CCN(c2ccc(F)cc2)CC1 , state the outcome it received in this test.
inactive

Given O=C(NC(=S)NC1CCCCC1)c1ccc(Cl)cc1 , state the outcome it received in this test.
inactive

Given Cc1cc(-c2nnc(SCC(=O)Nc3ccc(F)cc3)n2N)n[nH]1 , state the outcome it received in this test.
inactive

Given CC(C)=CCN1CCN(CCCc2ccccc2)CC1CCO (configuration not stated) , state the outcome it received in this test.
inactive

Given CCOC(=O)c1sc(=NC(=O)c2ccc(Br)cc2)n(C)c1C , state the outcome it received in this test.
inactive

Given CCOC(=O)N1CCN(S(=O)(=O)c2ccc(OC)cc2)CC1 , state the outcome it received in this test.
inactive

Given Cc1cc(C)cc(NS(=O)(=O)Cc2ccccc2)c1 , state the outcome it received in this test.
inactive

Given O=C(Nc1ccc([N+](=O)[O-])cc1)OCCc1ccccn1 , state the outcome it received in this test.
inactive

Given Cc1cc(NC(=O)CCC(=O)N(CC(=O)NC2CCCC2)c2ccc(F)cc2)no1 , state the outcome it received in this test.
inactive

Given CCc1nc(Nc2ccc(NC(C)=O)cc2)c2oc3ccccc3c2n1 , state the outcome it received in this test.
inactive

Given CCOC(=O)Cn1c(O)c(N=NC(=O)CNC(=O)Cc2ccccc2)c2ccccc21 , state the outcome it received in this test.
inactive

Given COc1ccc(C[C@H](C(=O)O)N2C(=O)c3ccc(C(=O)O)cc3C2=O)cc1 , state the outcome it received in this test.
inactive

Given COc1ccccc1N(C(=O)Cn1nnc2ccccc21)C(C(=O)NCc1ccco1)c1ccc(C)o1 (configuration not stated) , state the outcome it received in this test.
active

Given O=C(Nc1nc2ccc([N+](=O)[O-])cc2s1)c1ccncc1 , state the outcome it received in this test.
inactive

Given CC(C)(C)c1ccc(C(=O)N2CCC(C(=O)N3CCCCC3)CC2)cc1 , state the outcome it received in this test.
inactive

Given Cc1cc(C(=O)COc2ccccc2Cl)c(C)n1C1CC1 , state the outcome it received in this test.
inactive

Given CCOc1ccc(NC(=O)C2CCCN(C(=O)Nc3ccccc3)C2)cc1 (configuration not stated) , state the outcome it received in this test.
inactive

Given CCc1nc(N2CCN(c3nc(C)cc(C)n3)CC2)c2oc3ccccc3c2n1 , state the outcome it received in this test.
inactive

Given Cc1cc(NC(=O)CSC2=NS(=O)(=O)c3cc(Cl)ccc3N2)no1 , state the outcome it received in this test.
inactive

Given COc1ccc(N2CCN(S(=O)(=O)c3ccc4c(c3)NC(=O)C(C)C(=O)N4)CC2)cc1 (configuration not stated) , state the outcome it received in this test.
inactive

Given Cc1ccc(NC(=O)Cc2nnc(SCC(=O)Nc3nncs3)n2C)cc1 , state the outcome it received in this test.
inactive

Data credit: PubChem BioAssay AID504832
